Below: a set of entries, each annotated with reported IC50.
system_name: recombinant mouse GALK1 (Mus musculus, UniProt Q9R0N0)
Sequence (Q9R0N0 whole entry): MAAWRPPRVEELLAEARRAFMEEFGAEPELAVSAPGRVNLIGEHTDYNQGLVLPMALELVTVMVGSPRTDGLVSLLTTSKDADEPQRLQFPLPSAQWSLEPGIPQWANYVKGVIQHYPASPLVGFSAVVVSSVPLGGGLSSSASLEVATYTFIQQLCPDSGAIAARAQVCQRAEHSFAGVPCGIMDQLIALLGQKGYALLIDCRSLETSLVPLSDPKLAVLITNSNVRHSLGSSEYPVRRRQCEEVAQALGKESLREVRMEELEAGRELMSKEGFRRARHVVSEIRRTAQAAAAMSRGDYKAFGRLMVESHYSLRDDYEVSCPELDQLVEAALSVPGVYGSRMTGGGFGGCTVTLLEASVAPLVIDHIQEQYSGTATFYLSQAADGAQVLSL
assay_details: mGALK1 biochemical activity assay (Kinase-Glo Plus, ATP depletion)
experimental_setup: Tables 2-15; 35 μM ATP, 100 μM galactose, 1 h; bracketed figure after some values is undefined and not reported; read-out: mGALK IC50
State the value with its unit after it.

Some solved cases for reference:
- molecule: "CC1=C(C(=O)NCc2cccc(CO)c2)C(c2ccccc2Cl)N=C(Nc2nc3ccccc3o2)N1 (centres unmarked) [Compound 227]"
  IC50: "12.2 µM"
- molecule: "CC1=C(C(=O)Nc2cc(-c3nn[nH]n3)ccn2)C(c2ccccc2Cl)N=C(Nc2nc3ccc(F)cc3o2)N1 (centres unmarked) [Compound 41]"
  IC50: "7.69 µM"
- molecule: "COC(=O)c1cc(NC(=O)C2=C(C)NC(Nc3nc4ccccc4o3)=NC2c2ccccc2Cl)ccn1 (centres unmarked) [Compound 204]"
  IC50: "10.9 µM"
- molecule: "CC1=C(C(=O)Nc2cc(C(=O)O)ccn2)C(c2ccc(Cl)cc2Cl)N=C(Nc2nc3ccc(F)cc3o2)N1 (centres unmarked) [Compound 47]"
  IC50: "3.85 µM"
- molecule: "CC1=C(C(=O)Nc2cc(C(N)=O)ccn2)C(c2ccccc2Cl)N=C(Nc2nc3ccccc3o2)N1 (centres unmarked) [Compound 212]"
  IC50: "7.69 µM"
- molecule: "CC1=C(C(=O)NCc2ccccc2O)C(c2ccccc2Cl)N=C(Nc2nc3ccccc3o2)N1 (centres unmarked) [Compound 219]"
  IC50: "10.9 µM"

// query Field: IC50 (recombinant mouse GALK1 (Mus musculus, UniProt Q9R0N0)). Entry: CC1=C(C(=O)Nc2cc(C(=O)O)ccn2)[C@H](c2ccccc2Cl)N=C(Nc2nc3ccccc3o2)N1 [Compound 208]
// result 3.43 µM

// query Field: IC50 (recombinant mouse GALK1 (Mus musculus, UniProt Q9R0N0)). Entry: CC1=C(C(=O)Nc2ccc(C(=O)O)cc2)C(c2ccccc2Cl)N=C(Nc2nc3ccccc3o2)N1 (centres unmarked) [Compound 143]
// result 6.11 µM

// query Field: IC50 (recombinant mouse GALK1 (Mus musculus, UniProt Q9R0N0)). Entry: CC1=C(C(=O)NCCN(C)C)C(c2ccccc2Cl)N=C(Nc2nc3ccccc3o2)N1 (centres unmarked) [Compound 237]
// result 15.3 µM

// query Field: IC50 (recombinant mouse GALK1 (Mus musculus, UniProt Q9R0N0)). Entry: COc1ccc([C@@H]2N=C(Nc3nc4ccc(F)cc4o3)NC(C)=C2C(=O)Nc2cc(C(=O)O)ccn2)c(Cl)c1 [Compound 53]
// result 1.99 µM

// query Field: IC50 (recombinant mouse GALK1 (Mus musculus, UniProt Q9R0N0)). Entry: CC1=C(C(=O)Nc2ccccc2O)C(c2ccccc2Cl)N=C(Nc2nc3ccccc3o2)N1 (centres unmarked) [Compound 161]
// result 17.2 µM

// query Field: IC50 (recombinant mouse GALK1 (Mus musculus, UniProt Q9R0N0)). Entry: CC1=C(C(=O)NCc2cnn(C)c2)C(c2ccc(C)cc2Cl)N=C(Nc2nc3cnccc3o2)N1 (centres unmarked) [Compound 104]
// result 12.2 µM

// query Field: IC50 (recombinant mouse GALK1 (Mus musculus, UniProt Q9R0N0)). Entry: CC1=C(C(=O)Nc2ccnc(C(=O)O)c2)C(c2ccccc2Cl)N=C(Nc2nc3ccccc3o2)N1 (centres unmarked) [Compound 203]
// result 3.06 µM

###

system_name: recombinant human GALK1 (Homo sapiens, UniProt P51570)
Sequence (P51570 whole entry): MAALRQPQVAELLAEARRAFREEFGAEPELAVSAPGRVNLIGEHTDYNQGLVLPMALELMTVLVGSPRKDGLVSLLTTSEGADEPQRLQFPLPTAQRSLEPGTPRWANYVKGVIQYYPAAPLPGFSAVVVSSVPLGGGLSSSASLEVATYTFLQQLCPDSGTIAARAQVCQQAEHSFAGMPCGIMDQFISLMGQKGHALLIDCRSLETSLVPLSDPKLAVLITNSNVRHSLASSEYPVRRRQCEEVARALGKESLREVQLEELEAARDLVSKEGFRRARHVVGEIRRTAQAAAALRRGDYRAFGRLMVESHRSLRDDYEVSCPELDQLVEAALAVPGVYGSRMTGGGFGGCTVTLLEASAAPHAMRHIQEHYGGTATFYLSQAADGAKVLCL
assay_details: hGALK1 biochemical activity assay (Kinase-Glo Plus, ATP depletion)
experimental_setup: Tables 2-15; 35 μM ATP, 100 μM galactose, 1 h; bracketed figure after some values (e.g. −1.2) is undefined and not reported; read-out: hGALK IC50
Below: a set of entries, each annotated with reported IC50.
Use µM as the unit, but write only the number.

- compound: "CC1=C(C(=O)Nc2cc(C(=O)O)ccn2)[C@@H](c2ccccc2Cl)N=C(Nc2nc3ccc(F)cc3o2)N1 [Compound 20]"
  property_label: "IC50"
  numeric_readout: 3.06
- compound: "CC1=C(C(=O)Nc2cc(C(=O)O)ccn2)C(c2ccc(C)cc2Cl)N=C(Nc2nc3cnccc3o2)N1 (stereo not drawn) [Compound 106]"
  property_label: "IC50"
  numeric_readout: 0.86
- compound: "COC(=O)Cc1cccc(NC(=O)C2=C(C)NC(Nc3nc4ccccc4o3)=NC2c2ccccc2Cl)c1 (stereo not drawn) [Compound 176]"
  property_label: "IC50"
  numeric_readout: 10.9
- compound: "CNC(=O)c1ccnc(NC(=O)C2=C(C)NC(Nc3nc4ccccc4o3)=NC2c2ccccc2Cl)c1 (stereo not drawn) [Compound 213]"
  property_label: "IC50"
  numeric_readout: 3.06
- compound: "COC(=O)c1csc(NC(=O)C2=C(C)NC(Nc3nc4ccccc4o3)=NC2c2ccccc2Cl)n1 (stereo not drawn) [Compound 186]"
  property_label: "IC50"
  numeric_readout: 12.2
- compound: "CC1=C(C(=O)Nc2cc(C(=O)O)ccn2)C(c2cccc(C(F)(F)F)c2Cl)N=C(Nc2nc3ccc(F)cc3o2)N1 (stereo not drawn) [Compound 51]"
  property_label: "IC50"
  numeric_readout: 19.3

// query Please give the measured IC50 for this compound: CC1=C(C(=O)Nc2cc(C(=O)O)ccn2)C(c2ccccc2Cl)N=C(Nc2nc3cc(N)ccc3o2)N1 (stereo not drawn) [Compound 12]
// result 7.69

// query Please give the measured IC50 for this compound: CC1=C(C(=O)Nc2cc(B(O)O)ccn2)C(c2ccc(C)cc2Cl)N=C(Nc2nc3ccc(F)cc3o2)N1 (stereo not drawn) [Compound 92]
// result 1.93

// query Please give the measured IC50 for this compound: CCn1nc(C)c(CNC(=O)C2=C(C)NC(Nc3nc4ccc(F)c(N)c4o3)=NC2c2ccc(C)cc2Cl)c1F (stereo not drawn) [Compound 129]
// result 0.43

// query Please give the measured IC50 for this compound: CC1=C(C(=O)Nc2cc(C(=O)O)ccn2)[C@H](c2ccccc2Cl)N=C(Nc2nc3cccc(N)c3o2)N1 [Compound 24]
// result 0.08

// query Please give the measured IC50 for this compound: CC1=C(C(=O)NCc2cnn(C)c2)C(c2ccccc2Cl)N=C(Nc2nc3ccccc3o2)N1 (stereo not drawn) [Compound 238]
// result 1.37

###

system_name: hGALK1m (Homo sapiens, UniProt P51570, E253A/K252A)
Construct: made in house; host or cells: E. coli HMS174
Sequence (P51570 whole entry K252A/E253A): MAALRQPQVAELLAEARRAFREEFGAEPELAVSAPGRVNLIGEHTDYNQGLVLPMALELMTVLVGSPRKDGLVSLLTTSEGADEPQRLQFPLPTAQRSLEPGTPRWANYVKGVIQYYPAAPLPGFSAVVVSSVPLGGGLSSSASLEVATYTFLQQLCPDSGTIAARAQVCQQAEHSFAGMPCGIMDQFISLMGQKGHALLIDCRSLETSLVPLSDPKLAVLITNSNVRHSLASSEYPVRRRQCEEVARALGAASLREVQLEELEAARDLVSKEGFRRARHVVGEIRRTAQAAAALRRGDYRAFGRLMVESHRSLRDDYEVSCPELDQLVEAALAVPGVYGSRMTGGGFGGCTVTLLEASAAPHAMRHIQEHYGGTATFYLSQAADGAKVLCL
assay_details: in vitro hGALK1 activity assay of the structure-based optimisation (Example 12, Tables 17-20)
Assay type: biochemical
property_label: change of potency versus parent compound (in words)

- molecule: "CC1=C(C(=O)Nc2cc(C(=O)O)ccn2)C(c2cccc(F)c2Cl)N=C(Nc2nc3ccc(F)cc3o2)N1 (centres unmarked)"
  result: "compromised the potency"
- molecule: "CC1=C(C(=O)Nc2cc(C(=O)O)ccn2)C(c2cccc(Cl)c2Cl)N=C(Nc2nc3ccc(F)cc3o2)N1 (centres unmarked)"
  result: "compromised the potency"
- molecule: "CC1=C(C(=O)Nc2cc(C(=O)O)ccn2)C(c2cccc(C(F)(F)F)c2)N=C(Nc2nc3ccc(F)cc3o2)N1 (centres unmarked)"
  result: "compromised the potency"

###

system_name: recombinant human GALK1 (Homo sapiens)
assay_details: hGALK1 biochemical activity assay (Kinase-Glo Plus, ATP depletion)
experimental_setup: recombinant human GALK1, Kinase-Glo Plus ATP depletion; read-out: hGALK
Below: a set of entries, each annotated with reported pIC50.
To interpret pIC50, take it as minus log10 of a concentration measured in moles per litre.

- compound: "CC1=C(C(=O)NCc2cnn(CC(F)(F)F)c2)C(c2ccc(C)cc2Cl)N=C(Nc2nc3ccc(F)c(N)c3o2)N1 (stereo not drawn) [Compound 131]"
  property_label: "pIC50"
  numeric_readout: 6.72
- compound: "CC1=C(C(=O)Nc2ccc(CN)cc2)C(c2ccccc2Cl)N=C(Nc2nc3ccccc3o2)N1 (stereo not drawn) [Compound 169]"
  property_label: "pIC50"
  numeric_readout: 5.21
- compound: "CC1=C(C(=O)Nc2ccccc2F)C(c2ccccc2Cl)N=C(Nc2nc3ccccc3o2)N1 (stereo not drawn) [Compound 157]"
  property_label: "pIC50"
  numeric_readout: 5.11
- compound: "CC1=C(C(=O)Nc2ccc(C(N)=O)cn2)C(c2ccccc2Cl)N=C(Nc2nc3ccc(F)cc3o2)N1 (stereo not drawn) [Compound 36]"
  property_label: "pIC50"
  numeric_readout: 5.61
- compound: "CC1=C(C(=O)Nc2cc(C(=O)O)ccn2)C(c2cccc(S(N)(=O)=O)c2)N=C(Nc2nc3ccc(F)cc3o2)N1 (stereo not drawn) [Compound 78]"
  property_label: "pIC50"
  numeric_readout: 4.76

// query Please give the measured pIC50 for this compound: CC1=C(C(=O)NCc2cnn(C)c2)C(c2ccccc2Cl)N=C(Nc2nc3ccc(F)cc3o2)N1 (stereo not drawn) [Compound 44]
// result 5.76

// query Please give the measured pIC50 for this compound: CC1=C(C(=O)NCc2cccc(C(=O)O)c2)C(c2ccccc2Cl)N=C(Nc2nc3ccccc3o2)N1 (stereo not drawn) [Compound 226]
// result 5.11

// query Please give the measured pIC50 for this compound: CC1=C(C(=O)Nc2cc(-c3nn[nH]n3)ccn2)C(c2ccc(C)cc2Cl)N=C(Nc2nc3ccc(F)cc3o2)N1 (stereo not drawn) [Compound 88]
// result 5.86
